Entry source: patent US7642244

# Study target: T1, human NPY2 receptor (human, UniProt P49146 1-381)
# T1 sequence (looked up): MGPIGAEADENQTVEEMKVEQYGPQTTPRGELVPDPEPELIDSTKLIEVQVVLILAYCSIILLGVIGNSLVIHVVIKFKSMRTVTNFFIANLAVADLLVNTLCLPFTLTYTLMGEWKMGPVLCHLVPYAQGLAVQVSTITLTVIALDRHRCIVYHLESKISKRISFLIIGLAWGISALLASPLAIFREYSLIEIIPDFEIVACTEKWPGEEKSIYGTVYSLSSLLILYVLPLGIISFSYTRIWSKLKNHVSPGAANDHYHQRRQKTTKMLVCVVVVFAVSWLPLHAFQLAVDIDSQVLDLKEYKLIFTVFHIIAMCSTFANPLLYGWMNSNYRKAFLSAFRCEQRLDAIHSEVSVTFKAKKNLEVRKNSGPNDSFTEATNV
# Assay name: cell-based or functional assay
Starred links: 1 amine or outer side, 2 acyl side, 3 side chain; linkers in the order of their positions; H or OH if unused. Non-standard residues stand in square brackets, D forms with d. Pqa = 4-oxo-6-(1-piperazinyl)-3(4H)-quinazoline-acetic acid, O=C(Cn1cnc2ccc(N3CCN([*:1])CC3)cc2c1=O)[*:2]; Phe(4-CF3) = N[C@@H](Cc1ccc(C(F)(F)F)cc1)C(=O)O; PEG30,000 SPA = (PEG-30,000)CH2CH2CO; NMeR = CN[C@@H](CCCNC(=N)N)C(=O)O
Readout label: Y2R EC50 (nM) FLIPR
Respond with the bare value in nM.

1. H-IK[Pqa]RHYLNLVTRQ[NMeR][Phe(4-CF3)]-NH2 [H-Ile-Lys-Pqa-Arg-His-Tyr-Leu-Asn-Leu-Val-Thr-Arg-Gln-(NMe)Arg-4-trifluoro methyl-Phe-NH2] = 6.13
2. IKXRHYLNLVTRQRF (Pqa as third residue; (NMe)Arg as penultimate residue; 4 Methoxy-Phe as C-terminal residue; C-terminal amide (NH2)) [H-Ile-Lys-Pqa-Arg-His-Tyr-Leu-Asn-Leu-Val-Thr-Arg-Gln-(NMe)Arg-4 Methoxy-Phe-NH2] = 0.74
3. IKXRHYLNLVTRQRX (Pqa as third residue; (NMe)Arg as penultimate residue; 1-Nal (1-Naphthyl Alanine) as C-terminal residue; C-terminal amide (NH2)) [H-Ile-Lys-Pqa-Arg-His-Tyr-Leu-Asn-Leu-Val-Thr-Arg-Gln-(NMe)Arg-1-Nal-NH2] = 2.73

Can you look up the measured Y2R EC50 (nM) FLIPR of Ac-IK(PEG30,000 SPA)[Pqa]RHYLNWVTRQ[NMeR]Y-NH2 [Ac-Ile(PEG-30,000)CH2CH2CO(ε)Lys-Pqa-Arg-His-Tyr-Leu-Asn-Trp-Val-Thr-Arg-Gln-(NMe)Arg-Tyr-NH2] for me? 549

Name the recorded Y2R EC50 (nM) FLIPR for H-IK[Pqa]RHYLNWVTRQ[NMeR]Y-NH2 [H-Ile-Lys-Pqa-Arg-His-Tyr-Leu-Asn-Trp-Val-Thr-Arg-Gln-(NMe)Arg-Tyr-NH2] . 0.44

Endpoint output: Y2R EC50 (nM) FLIPR of IXXRHYLNWVTRQRY (Nle as second residue; Pqa as third residue; (NMe)Arg as penultimate residue; C-terminal amide (NH2)) [H-Ile-Nle-Pqa-Arg-His-Tyr-Leu-Asn-Trp-Val-Thr-Arg-Gln-(NMe)Arg-Tyr-NH2] . Value? 8.1

// Y2R EC50 (nM) FLIPR lookup, key: IKXRHYLNLVTRQRX (Pqa as third residue; (NMe)Arg as penultimate residue; 2-Nal (2-Naphthyl Alanine) as C-terminal residue; C-terminal amide (NH2)) [H-Ile-Lys-Pqa-Arg-His-Tyr-Leu-Asn-Leu-Val-Thr-Arg-Gln-(NMe)Arg-2-Nal-NH2] 4.11
